Listed compounds paired with reported pIC50
- Organism: Mus musculus
- assay notes: Compound was evaluated for inhibitory activity against production of nitric oxide (NO) induced by interferon-gamma (IFN-gamma) in mouse macrophages
- Format: functional, organism-based
pIC50: −log10 of the molar value.

| compound | inequality symbol | pIC50 |
| --- | --- | --- |
| CC1(C)CC[C@]2(C(=O)O)CC[C@]3(C)C(=CC[C@@H]4[C@@]5(C)CC[C@H](O)C(C)(C)[C@@H]5CC[C@]43C)[C@@H]2C1 [OLEANOLIC_ACID] | < | 4.40 |
| C[C@@H]1C[C@H]2[C@@H]3CCC4=CC(=O)C=C[C@]4(C)[C@@]3(F)[C@@H](O)C[C@]2(C)[C@@]1(O)C(=O)CO [DEXAMETHASONE] | = | 9.52 |
